biological target: VEGFR2 (Homo sapiens, UniProt P35968); assay: VEGF stimulated Ca++ signal in vitro (FLIPR)
Sequence (P35968 20-1356): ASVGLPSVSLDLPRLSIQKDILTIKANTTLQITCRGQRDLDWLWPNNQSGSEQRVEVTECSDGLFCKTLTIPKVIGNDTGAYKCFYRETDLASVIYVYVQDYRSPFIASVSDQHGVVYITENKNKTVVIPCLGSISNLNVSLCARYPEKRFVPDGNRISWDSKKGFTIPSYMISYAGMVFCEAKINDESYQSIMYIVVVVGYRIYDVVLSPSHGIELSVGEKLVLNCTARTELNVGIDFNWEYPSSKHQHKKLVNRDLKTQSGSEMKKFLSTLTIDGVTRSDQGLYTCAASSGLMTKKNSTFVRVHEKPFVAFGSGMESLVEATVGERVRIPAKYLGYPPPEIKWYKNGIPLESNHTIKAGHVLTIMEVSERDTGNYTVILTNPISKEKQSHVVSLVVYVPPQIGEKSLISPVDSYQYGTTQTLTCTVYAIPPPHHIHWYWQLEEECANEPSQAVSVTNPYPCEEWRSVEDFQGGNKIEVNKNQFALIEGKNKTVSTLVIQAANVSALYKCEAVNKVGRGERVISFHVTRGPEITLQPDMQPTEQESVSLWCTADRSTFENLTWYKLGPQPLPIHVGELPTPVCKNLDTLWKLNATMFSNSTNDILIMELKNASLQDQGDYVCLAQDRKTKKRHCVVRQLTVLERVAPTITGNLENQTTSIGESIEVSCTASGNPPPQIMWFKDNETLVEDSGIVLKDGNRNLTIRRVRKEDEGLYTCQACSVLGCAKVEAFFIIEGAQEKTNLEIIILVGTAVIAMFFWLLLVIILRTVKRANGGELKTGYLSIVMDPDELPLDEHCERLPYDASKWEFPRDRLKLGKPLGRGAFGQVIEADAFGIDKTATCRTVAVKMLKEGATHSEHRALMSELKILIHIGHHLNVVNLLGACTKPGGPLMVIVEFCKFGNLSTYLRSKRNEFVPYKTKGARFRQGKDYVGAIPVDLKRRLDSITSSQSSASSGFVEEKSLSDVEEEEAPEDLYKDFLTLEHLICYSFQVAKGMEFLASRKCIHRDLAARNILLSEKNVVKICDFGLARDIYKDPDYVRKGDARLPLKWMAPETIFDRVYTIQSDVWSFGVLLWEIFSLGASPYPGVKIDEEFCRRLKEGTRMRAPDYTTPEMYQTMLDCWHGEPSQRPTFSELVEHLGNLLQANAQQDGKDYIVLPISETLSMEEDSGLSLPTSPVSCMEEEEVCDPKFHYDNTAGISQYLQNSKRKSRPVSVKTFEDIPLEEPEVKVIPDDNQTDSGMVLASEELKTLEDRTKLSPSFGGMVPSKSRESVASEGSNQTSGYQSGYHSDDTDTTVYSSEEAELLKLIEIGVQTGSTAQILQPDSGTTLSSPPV
pIC50: −log10 of the molar value.
Measured Metric: pIC50

Examples from the recorded data:
1) COC(=O)[C@@H]1CCCN1CCCNC(=O)c1c[nH]c(-c2cc(Oc3cc(C(=O)Nc4cc(C)ccc4F)ccc3F)ccn2)c1 : 8.30
2) Cc1ccc(F)c(NC(=O)Nc2ccc(Oc3ccnc(-c4cc(C(=O)NN)c[nH]4)c3)cc2)c1 : 8.40
3) COC(=O)CNCCCNC(=O)c1c[nH]c(-c2cc(Oc3ccc(NC(=O)Nc4cc(C)ccc4F)cc3)ccn2)c1 : 7.85
4) CCOC(=O)CN1CCN(CCCNC(=O)c2c[nH]c(-c3cc(Oc4ccc(NC(=O)Nc5cc(C)ccc5F)cc4)ccn3)c2)CC1 : 7.96

[A] Cc1ccc(F)c(NC(=O)Nc2ccc(Oc3ccnc(-c4cc(C(=O)OCCCN5CCOCC5)c[nH]4)c3)cc2F)c1
[B] Cc1cccc(NC(=O)Nc2ccc(Oc3ccnc(-c4cc(C(=O)NCCCO)c[nH]4)c3)cc2)c1
[C] CCOC(=O)CN1CCN(C(=O)c2c[nH]c(-c3cc(Oc4ccc(NC(=O)Nc5cc(C)ccc5F)c(F)c4)ccn3)c2)CC1
Qu. Rank items: key pIC50, increasing. In plain terms: list the labels in the order you were asked to.
Ans. A, C, B
(A: 7.89, C: 8.10, B: 8.52)

---

target: VEGFR2 (Homo sapiens, UniProt P35968); assay: VEGF stimulated Ca++ signal in vitro (FLIPR)
pIC50: −log10 of the molar value.
Measured Metric: pIC50

1. COC(=O)CCNC(=O)c1cc(-c2cc(Oc3ccc(NC(=O)Nc4cc(C)ccc4F)cc3)ccn2)cs1 : 9.00
2. Cc1ccc(F)c(NC(=O)Nc2ccc(Oc3ccnc(-c4cc(C(=O)N5CCNCC5)c[nH]4)c3)cc2F)c1 : 7.82
3. CCOC(=O)CN1CCN(CCNC(=O)c2c[nH]c(-c3cc(Oc4ccc(NC(=O)Nc5cc(C)ccc5F)cc4)ccn3)c2)CC1 : 8.52
4. COC(=O)CNCCNC(=O)c1c[nH]c(-c2cc(Oc3ccc(NC(=O)Nc4cc(C)ccc4F)cc3)ccn2)c1 : 8.40
5. Cc1ccc(F)c(NC(=O)Nc2ccc(Oc3ccnc(-c4cc(C(=O)NCCCN5CCOC(CO)C5)c[nH]4)c3)cc2)c1 (stereo not shown) : 7.59

[I] COC(=O)CN(CCCNC(=O)c1c[nH]c(-c2cc(Oc3ccc(NC(=O)Nc4cc(C)ccc4F)c(F)c3)ccn2)c1)CC(=O)OC
[II] Cc1ccc(F)c(NC(=O)Nc2ccc(Oc3ccnc(-c4cc(C(=O)NCCCNC(=O)OC(C)(C)C)c[nH]4)c3)cc2F)c1
[III] Cc1ccc(F)c(NC(=O)Nc2ccc(Oc3ccnc(-c4cc(C(=O)OCCCN5CCOCC5)c[nH]4)c3)cc2)c1
[IV] CCOC(=O)N1CCN(CCCNC(=O)c2c[nH]c(-c3cc(Oc4cc(C(=O)Nc5cc(C)ccc5F)ccc4F)ccn3)c2)CC1
Qu. Rank items: key pIC50, increasing. In plain terms: list the labels in the order you were asked to.
Ans. IV, III, II, I
(IV: 7.68, III: 8.00, II: 8.22, I: 8.52)

[a] COC(=O)[C@@H]1CCCN1CCCNC(=O)c1c[nH]c(-c2cc(Oc3ccc(F)c(NC(=O)c4occc4C)c3)ccn2)c1
[b] COC(=O)CC[C@H](NC(=O)c1c[nH]c(-c2cc(Oc3ccc(NC(=O)Nc4cc(C)ccc4F)c(F)c3)ccn2)c1)C(=O)OC
[c] CCOC(=O)N1CCN(CCCNC(=O)c2c[nH]c(-c3cc(Oc4ccc(NC(=O)Nc5cc(C)ccc5F)c(F)c4)ccn3)c2)CC1
[d] COC(=O)CC[C@H](NC(=O)c1c[nH]c(-c2cc(Oc3ccc(NC(=O)Nc4cccc(C)c4)c(F)c3)ccn2)c1)C(=O)OC
Qu. Descending sort on pIC50 required. In plain terms: list the labels in the order you were asked to.
Ans. d, a, b, c
(d: 8.70, a: 8.30, b: 8.10, c: 7.89)

[P] CCOC(=O)N1CCN(CCNC(=O)c2c[nH]c(-c3cc(Oc4ccc(NC(=O)Nc5cc(C)ccc5F)c(F)c4)ccn3)c2)CC1
[Q] COC(=O)CNC(=O)c1c[nH]c(-c2cc(Oc3ccc(NC(=O)Nc4cc(C)ccc4F)c(F)c3)ccn2)c1
[R] COC(=O)[C@@H]1C[C@@H](O)CN1CCCNC(=O)c1c[nH]c(-c2cc(Oc3ccc(NC(=O)Nc4cc(C)ccc4F)cc3)ccn2)c1 (relative stereo)
Qu. Descending sort on pIC50 required. In plain terms: list the labels in the order you were asked to.
Ans. Q, R, P
(Q: 8.52, R: 8.30, P: 7.96)

[1] COC(=O)CCCOC(=O)c1c[nH]c(-c2cc(Oc3ccc(NC(=O)Nc4cc(C)ccc4F)cc3)ccn2)c1
[2] Cc1cccc(NC(=O)Nc2ccc(Oc3ccnc(-c4cc(C(=O)NN)c[nH]4)c3)cc2)c1
Qu. Just tell me: smaller pIC50 value, 1 or 2 ? Returns: label corresponding to the selected item.
Ans. 1
(1: 7.92, 2: 8.40)

[A] COC(=O)[C@@H]1C[C@@H](O)CN1CCNC(=O)c1c[nH]c(-c2cc(Oc3ccc(NC(=O)Nc4cc(C)ccc4F)cc3)ccn2)c1 (relative stereo)
[B] COC(=O)CN(CCNC(=O)c1c[nH]c(-c2cc(Oc3ccc(NC(=O)Nc4cc(C)ccc4F)c(F)c3)ccn2)c1)CC(=O)OC
[C] Cc1cccc(NC(=O)Nc2ccc(Oc3ccnc(-c4cc(C(=O)NCCCN5CCOCC5)c[nH]4)c3)cc2)c1
Qu. Rank items: key pIC50, increasing. In plain terms: list the labels in the order you were asked to.
Ans. A, B, C
(A: 8.00, B: 8.40, C: 8.70)

[I] CCOC(=O)CCCCNC(=O)c1c[nH]c(-c2cc(Oc3ccc(NC(=O)Nc4cc(C)ccc4F)cc3)ccn2)c1
[II] COC(=O)CN(CCCNC(=O)c1c[nH]c(-c2cc(Oc3ccc(NC(=O)Nc4cc(C)ccc4F)cc3)ccn2)c1)CC(=O)OC
Qu. Just tell me: smaller pIC50 value, I or II ? Returns: label corresponding to the selected item.
Ans. I

[A] Cc1ccoc1C(=O)Nc1cc(Oc2ccnc(-c3cc(C(=O)NCCCN4CCN(C)CC4)c[nH]3)c2)ccc1F
[B] COCCOC(=O)CCCNC(=O)c1c[nH]c(-c2cc(Oc3ccc(NC(=O)Nc4cc(C)ccc4F)cc3)ccn2)c1
Qu. Larger number for pIC50: A , or B ? Returns: label corresponding to the selected item.
Ans. B

[P] COC(=O)CN(CCNC(=O)c1c[nH]c(-c2cc(Oc3ccc(NC(=O)Nc4cc(C)ccc4F)cc3)ccn2)c1)CC(=O)OC
[Q] Cc1ccoc1C(=O)Nc1cc(Oc2ccnc(-c3cc(C(=O)NCCCN4CCC(O)CC4)c[nH]3)c2)ccc1F
Qu. Larger number for pIC50: P , or Q ? Returns: label corresponding to the selected item.
Ans. P
